Molecular target: T1, human ferroportin (SLC40A1) fused in frame with GFP, stably expressed in HEK293 cells (human, UniProt Q9NP59 1-571)
T1 sequence (looked up): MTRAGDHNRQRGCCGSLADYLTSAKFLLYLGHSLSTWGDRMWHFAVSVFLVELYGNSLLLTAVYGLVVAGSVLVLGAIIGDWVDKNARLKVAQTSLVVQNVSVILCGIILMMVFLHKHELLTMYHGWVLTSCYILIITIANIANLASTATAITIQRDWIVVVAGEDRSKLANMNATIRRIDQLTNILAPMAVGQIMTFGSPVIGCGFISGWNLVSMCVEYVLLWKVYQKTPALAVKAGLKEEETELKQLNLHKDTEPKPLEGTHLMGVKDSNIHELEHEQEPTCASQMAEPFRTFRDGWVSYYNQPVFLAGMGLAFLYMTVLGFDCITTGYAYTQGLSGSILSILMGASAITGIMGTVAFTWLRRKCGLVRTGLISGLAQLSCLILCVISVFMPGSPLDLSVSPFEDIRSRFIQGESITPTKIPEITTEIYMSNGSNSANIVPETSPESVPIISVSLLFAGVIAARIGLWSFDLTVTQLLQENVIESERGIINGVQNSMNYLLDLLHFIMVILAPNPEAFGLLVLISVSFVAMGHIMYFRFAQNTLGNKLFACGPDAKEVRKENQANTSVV
Assay: cell-based or functional assay
Experimental endpoint: Potency EC50 (nM), ferroportin-GFP internalization/degradation
Enter your answer as a number in nM; do not include the unit.

Potency EC50 (nM), ferroportin-GFP internalization/degradation for DTHFPCIKFKPRSKGWECK (N-terminal isovaleric acid; K(isoGlu-Palm) at Lys 10; C-terminal amide) [Isovaleric acid-DTHFPCIKFK(isoGlu-Palm)-PRSKGWECK-NH2] ?
6

Potency EC50 (nM), ferroportin-GFP internalization/degradation for H-DTHFPCIIFGPRSKGWVAC-NH2 (not fully specified (bridges); printed as Hy-DTHFPCIIFGPRSKGWVAC-NH2; cysteine pairing not given here) [Hy-DTHFPCIIFGPRSKGWVAC-NH2] ?
281

Source listed as patent US20170313754A1.
